normalized growth for assorted compounds
assay: chemical genetic growth profiling, strain panel (AID 1159580);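 note: tested at 20 µM; growth read once vehicle control cultures reached saturation at 30 °C; 1 = growth at the plate median or of vehicle wells; lower values mean less growth of the strain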; details: S. cerevisiae deletion strains, growth OD, locus YLR102C, strain apc9, stronger effect = lower value
Hit rate of the full screen: of about 5,500 compounds, about 2,000 (36%) were called active. About 18% were inconclusive and are not listed. The list shows a part of the results.
readout_name: normalized growth

compound | readout_number
COc1cc(O)c(C(=O)c2ccccc2)c(OC)c1 | 0.98
Cc1ncc([N+](=O)[O-])n1CCO | 0.991
C=C(C)c1cc2cc(C(C)=O)c(O)cc2o1 | 0.931
COc1cc(O)c(C(C)=O)c(OC)c1 | 0.992
CC(C)(O)CC[C@@H](O)[C@](C)(O)C1CC[C@@]2(O)C3=CC(=O)C4C[C@@H](O)[C@@H](O)C[C@]4(C)C3CC[C@]12C (stereo partly specified) | 0.992
c1ccc2c(c1)[nH]c1cnccc12 | 0.972

====

Here the recorded normalized growth is given for each entry.
test: chemical genetic growth profiling, strain panel (AID 1159580);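 note: tested at 20 µM; growth read once vehicle control cultures reached saturation at 30 °C; 1 = growth at the plate median or of vehicle wells; lower values mean less growth of the strain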; settings: S. cerevisiae deletion strains, growth OD, locus YDL134C, strain PPH21, stronger effect = lower value
Screen size: about 5,500 compounds; about 2,000 (36%) were called active. About 18% were inconclusive and are not listed. Some of the results follow.

compound | normalized growth
COC(=O)C1=CO[C@@H](O[C@@H]2O[C@H](CO)[C@@H](O)[C@H](O)[C@H]2O)[C@@H]2[C@@H](C)[C@@H](O)C[C@H]12 | 1.08
FC(F)(F)c1cc(NC2=NCCN=C(Nc3cc(C(F)(F)F)cc(C(F)(F)F)c3)SS2)cc(C(F)(F)F)c1 | 0.999
CC(=O)OC1CCC2C3CCc4cc(O)ccc4C3CCC12C (stereo not drawn) | 0.973
O=C1CCC(=O)N1CNc1ccccc1OC(F)(F)F | 0.999
CCOC(=O)C1=C(C)NC(C)=C(C(=O)OC)C1c1cccc([N+](=O)[O-])c1 (stereo not drawn) | 1
CC1(C)S[C@@H]2[C@H](NC(=O)COc3ccccc3)C(=O)N2[C@H]1C(=O)O | 1.01
O=[N+]([O-])c1ccc(C2N(Cc3ccccc3)CCC3CCCCN32)cc1 (stereo not drawn) | 1.01
CCCCCN=C(N)N/N=C\c1c[nH]c2ccc(OC)cc12 | 0.997

====

Items are presented alongside their recorded normalized growth.
experiment: chemical genetic growth profiling, strain panel (AID 1159580);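 note: tested at 20 µM; growth read once vehicle control cultures reached saturation at 30 °C; 1 = growth at the plate median or of vehicle wells; lower values mean less growth of the strain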; conditions: S. cerevisiae deletion strains, growth OD, locus YER016W, strain bim1, stronger effect = lower value
Among all 5,500 compounds or so, about 2,000 (36%) were called active. Not shown: some 18% with an inconclusive outcome. Some of the results follow.
readout_name: normalized growth

compound | readout_name | readout_number
COc1c(O)cc(O)cc1O | normalized growth | 0.996
COP(=S)(OC)SCn1nnc2ccccc2c1=O | normalized growth | 1.02
NCCS | normalized growth | 1
O=C1c2ccc(O)c(O)c2C(=O)c2c(O)ccc(O)c21 | normalized growth | 0.705
COc1cc(O)c(C)c(O)c1 | normalized growth | 1.02
Cc1cc(O)c2c(c1O)C(=O)c1c(O)cc(C)c(O)c1C2=O | normalized growth | 0.979
Cn1nnnc1SCC1=C(C(=O)O)N2C(=O)C(NC(=O)C(OC=O)c3ccccc3)C2SC1 (configuration not stated) | normalized growth | 0.997
